Ref: the supplement of paper PMC9233669

System: biotinyl-Val-oxazolone
Test: self-aminoacylation, catalytic enhancement (BVO) (fold over background); higher = more active; k-Seq, kA / k0A0; sequences stand for … in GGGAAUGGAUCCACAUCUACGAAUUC…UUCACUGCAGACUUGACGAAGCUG
Fewer inactive variants are shown than the library holds.
PROPERTY_LABEL: self-aminoacylation
The answer should be written as a number, with no unit following it.

GET /values?item= AUUCACCUUGGUGAUCGGGUG [Fam2.2 aminoacylation ribozyme variant] &system= biotinyl-Val-oxazolone returns self-aminoacylation: 3.7

GET /values?item= AUGCACAUAGGUCAUCGGGUG [Fam2.2 aminoacylation ribozyme variant] &system= biotinyl-Val-oxazolone returns self-aminoacylation: 6.08

GET /values?item= AUCCACCUAGGUCAUCGAGUG [Fam2.2 aminoacylation ribozyme variant] &system= biotinyl-Val-oxazolone returns self-aminoacylation: 5.17

GET /values?item= AUUACCCUAUUCAUCGAGUGA [Fam2.1 aminoacylation ribozyme variant] &system= biotinyl-Val-oxazolone returns self-aminoacylation: 2.66

GET /values?item= AUGACCCUGGUCAUCCAGUGA [Fam2.1 aminoacylation ribozyme variant] &system= biotinyl-Val-oxazolone returns self-aminoacylation: 3.16

GET /values?item= AUACUUCAAUCAAUCGGUCUG [Fam1A.1 aminoacylation ribozyme variant] &system= biotinyl-Val-oxazolone returns self-aminoacylation: 1.06

GET /values?item= AGUCACCUAGGUCAUCGGGUU [Fam2.2 aminoacylation ribozyme variant] &system= biotinyl-Val-oxazolone returns self-aminoacylation: 4.18

GET /values?item= AACUUUCCUAAUAGUCGCAAG [Fam3.1 aminoacylation ribozyme variant] &system= biotinyl-Val-oxazolone returns self-aminoacylation: 1.11

GET /values?item= AUUCACACAGGUCAUCGGGUG [Fam2.2 aminoacylation ribozyme variant] &system= biotinyl-Val-oxazolone returns self-aminoacylation: 4.47

GET /values?item= AAGUUUGCUAAUAGUCGCAUG [Fam3.1 aminoacylation ribozyme variant] &system= biotinyl-Val-oxazolone returns self-aminoacylation: 0.916

GET /values?item= AUUACCCUGGACUUCGAGUGA [Fam2.1 aminoacylation ribozyme variant] &system= biotinyl-Val-oxazolone returns self-aminoacylation: 2.17

GET /values?item= AAGUUCGCUAAUAGUCGCAUG [Fam3.1 aminoacylation ribozyme variant] &system= biotinyl-Val-oxazolone returns self-aminoacylation: 2.37

GET /values?item= AAGUUUGCUAAUCUUCGCAAG [Fam3.1 aminoacylation ribozyme variant] &system= biotinyl-Val-oxazolone returns self-aminoacylation: 1.07

GET /values?item= CCACACUUCAACCCAUCGGUC [Fam1B.1 aminoacylation ribozyme variant] &system= biotinyl-Val-oxazolone returns self-aminoacylation: 1.72

GET /values?item= CUACUCCAAACCAUCGGUCUG [Fam1A.1 aminoacylation ribozyme variant] &system= biotinyl-Val-oxazolone returns self-aminoacylation: 0.971

GET /values?item= CUACACUUCCAGCAAUCGGUC [Fam1B.1 aminoacylation ribozyme variant] &system= biotinyl-Val-oxazolone returns self-aminoacylation: 1.07

GET /values?item= CUCCUACAAACAAUCGGUCUG [Fam1A.1 aminoacylation ribozyme variant] &system= biotinyl-Val-oxazolone returns self-aminoacylation: 0.693

GET /values?item= CCACUCUUCAAGCAAUAGGUC [Fam1B.1 aminoacylation ribozyme variant] &system= biotinyl-Val-oxazolone returns self-aminoacylation: 0.668

GET /values?item= AAGUUGGCUAAUAGUCGCACG [Fam3.1 aminoacylation ribozyme variant] &system= biotinyl-Val-oxazolone returns self-aminoacylation: 1.63

GET /values?item= CUACGUCAUACAAUCGGUCUG [Fam1A.1 aminoacylation ribozyme variant] &system= biotinyl-Val-oxazolone returns self-aminoacylation: 1.09

GET /values?item= CUAAUUGAAACAAUCGGUCUG [Fam1A.1 aminoacylation ribozyme variant] &system= biotinyl-Val-oxazolone returns self-aminoacylation: 0.775

GET /values?item= AUUCACCUAGGUUAUCGGGUA [Fam2.2 aminoacylation ribozyme variant] &system= biotinyl-Val-oxazolone returns self-aminoacylation: 2.49

GET /values?item= CCACUCUUCAAGCAAUCGGUU [Fam1B.1 aminoacylation ribozyme variant] &system= biotinyl-Val-oxazolone returns self-aminoacylation: 1.6

GET /values?item= CUAAUUCAAACAAUCCGUCUG [Fam1A.1 aminoacylation ribozyme variant] &system= biotinyl-Val-oxazolone returns self-aminoacylation: 0.764

GET /values?item= AAGUUUGCUAAUUGUCGCAGG [Fam3.1 aminoacylation ribozyme variant] &system= biotinyl-Val-oxazolone returns self-aminoacylation: 1.3

GET /values?item= AUUACCCUGGUCCUCGAGAGA [Fam2.1 aminoacylation ribozyme variant] &system= biotinyl-Val-oxazolone returns self-aminoacylation: 1.28

GET /values?item= CUAGUUCAAAGAAUCGGUCUG [Fam1A.1 aminoacylation ribozyme variant] &system= biotinyl-Val-oxazolone returns self-aminoacylation: 0.951

GET /values?item= AUUCACCUGGGUCAACGGGUG [Fam2.2 aminoacylation ribozyme variant] &system= biotinyl-Val-oxazolone returns self-aminoacylation: 2.56

GET /values?item= CUUCACCUAGGUCAUCCGGUG [Fam2.2 aminoacylation ribozyme variant] &system= biotinyl-Val-oxazolone returns self-aminoacylation: 4.94

GET /values?item= CCACACUUCAAGCAAUCUGUC [Fam1B.1 aminoacylation ribozyme variant] &system= biotinyl-Val-oxazolone returns self-aminoacylation: 0.518

GET /values?item= AUACACCUAAGUCAUCGGGUG [Fam2.2 aminoacylation ribozyme variant] &system= biotinyl-Val-oxazolone returns self-aminoacylation: 2.91

GET /values?item= CUACUUGAAACAAUCGGUCCG [Fam1A.1 aminoacylation ribozyme variant] &system= biotinyl-Val-oxazolone returns self-aminoacylation: 1.02

GET /values?item= AUUUACCUACGUCAUCGGGUG [Fam2.2 aminoacylation ribozyme variant] &system= biotinyl-Val-oxazolone returns self-aminoacylation: 3.17

GET /values?item= AUUACCCUGGUCACCCAGUGA [Fam2.1 aminoacylation ribozyme variant] &system= biotinyl-Val-oxazolone returns self-aminoacylation: 3.6

GET /values?item= AUUUCCCUGGUCAUCGAGAGA [Fam2.1 aminoacylation ribozyme variant] &system= biotinyl-Val-oxazolone returns self-aminoacylation: 1.27
